- Test system: Hirsutella rhossiliensis
- Reported Conditions: named vitamin excluded; isolate OWVT-1
Values of Spore germination %, on agar greater than or equal to 60% map to YES; values below map to NO.

1. O=C(O)c1cccnc1
NO
2. Cc1ncc(CO)c(CO)c1O
NO
3. Nc1ccc(C(=O)O)cc1
NO
4. CC(C)(CO)C(O)C(=O)NCCC(=O)O (racemic)
NO
5. O[C@H]1[C@H](O)[C@@H](O)[C@H](O)[C@@H](O)[C@H]1O
YES
6. O=C(O)CCCC[C@@H]1SC[C@@H]2NC(=O)N[C@@H]21
NO

---

- System: Hirsutella rhossiliensis
- Assay Info: Effect of nitrogen source on growth, sporulation and spore germination
- Reported Conditions: nitrogen source 0.3296 g/L nitrogen; isolate ATCC46487; 5 weeks
Measurement Label: Growth mm-in-diam, on agar (mm-in-diam)

1. NC(CCC(=O)O)C(=O)O (racemic)
40.8
2. CSCCC(N)C(=O)O (racemic)
11.7
3. N[C@@H](CSSC[C@H](N)C(=O)O)C(=O)O
0.0
4. NC(=O)C[C@H](N)C(=O)O
51.8
5. NC(CO)C(=O)O (racemic)
45.3
6. N[C@@H](CC(=O)O)C(=O)O
43.8
7. N[C@@H](Cc1ccccc1)C(=O)O
34.3
8. NC(N)=O
43.5
9. C[C@@H](O)[C@H](N)C(=O)O (racemic)
25.4
10. O=C(O)[C@@H]1CCCN1
47.2
11. N[C@@H](Cc1c[nH]cn1)C(=O)O
36.3
12. NCC(=O)O
41.5
13. O=[N+]([O-])[O-].[Na+]
39.2
